# ASSAYED SYSTEM: recombinant human LDHA (Homo sapiens)
# Construct: purchased Abcam
# PROTOCOL: hLDHA enzymatic activity assay (kinetic spectrofluorimetric, β-NADH fluorescence decrease)
# Format: biochemical
# TEST CONDITIONS: ratio IC50 hLDHB / IC50 hLDHA
Selectivity Rate (IC50 hLDHB/hLDHA) by entry:
# print the numeric value only

Here are 2 molecules together with their reported answers.
>  <MOLECULE>
COc1ccc(C23CC(C4=C(CC(c5ccc(Cl)cc5)OC4=O)O2)c2cc([N+](=O)[O-])ccc2O3)cc1OC (racemic) [(±)-66b]

>  <Selectivity Rate (IC50 hLDHB/hLDHA)>
3.4

$$$$
>  <MOLECULE>
COc1ccc([C@]23C[C@H](C4=C(C[C@@H](c5ccccc5)OC4=O)O2)c2ccccc2O3)cc1OC (racemic) [(±)-62a]

>  <Selectivity Rate (IC50 hLDHB/hLDHA)>
41.8

$$$$

Now take the following molecule into account.
## Input Which Selectivity Rate (IC50 hLDHB/hLDHA) is reported for this molecule? COc1ccc(C23CC(C4=C(CC(c5ccc(Cl)cc5)OC4=O)O2)c2cc(Cl)ccc2O3)cc1OC (racemic) [(±)-69a]
## Output 7.1

###

# ASSAYED SYSTEM: recombinant human LDHA (Homo sapiens)
# Construct: purchased Abcam
# PROTOCOL: hLDHA enzymatic activity assay (kinetic spectrofluorimetric, β-NADH fluorescence decrease)
# Format: biochemical
# TEST CONDITIONS: ratio IC50 hLDHB / IC50 hLDHA
# Procedure: Briefly, the decrease in the coenzyme β-NADH fluorescence (λemission = 460 nm) was measured for 10 min, at different concentration of inhibitors, and its slope was compared with the one obtained when there were not inhibitors added (100% enzymatic activity). […]
OBSERVED PROPERTY: Selectivity Rate (IC50 hLDHB/hLDHA)

Some entries whose results are on file:
>  <MOLECULE>
COc1ccc(C23CC(C4=C(CC(c5ccc(Cl)cc5)OC4=O)O2)c2cc([N+](=O)[O-])ccc2O3)cc1OC (racemic) [(±)-66a]

>  <Selectivity Rate (IC50 hLDHB/hLDHA)>
4.8

$$$$
>  <MOLECULE>
COc1ccc(C23CC(C4=C(CC(c5ccc(Cl)cc5)OC4=O)O2)c2cc(Cl)ccc2O3)cc1OC (racemic) [(±)-69b]

>  <Selectivity Rate (IC50 hLDHB/hLDHA)>
5.4

$$$$
>  <MOLECULE>
COc1ccc(C23CC(C4=C(O2)C(=O)c2ccccc2C4=O)c2ccccc2O3)cc1OC (racemic) [(±)-57]

>  <Selectivity Rate (IC50 hLDHB/hLDHA)>
>7.1

$$$$
>  <MOLECULE>
COc1ccc(C2CC3=C(C(=O)O2)C2CC(c4ccc(OC)c(OC)c4)(O3)Oc3ccc(Cl)cc32)cc1 (racemic) [(±)-70a]

>  <Selectivity Rate (IC50 hLDHB/hLDHA)>
>2.7

$$$$
>  <MOLECULE>
COc1ccc(C2CC3=C(C(=O)O2)C2CC(c4ccc(OC)c(OC)c4)(O3)Oc3ccccc32)cc1 (racemic) [(±)-64a]

>  <Selectivity Rate (IC50 hLDHB/hLDHA)>
>5.7

$$$$
>  <MOLECULE>
COc1ccc(C2CC3=C(C(=O)O2)C2CC(c4ccc(OC)c(OC)c4)(O3)Oc3ccc([N+](=O)[O-])cc32)cc1 (racemic) [(±)-67a]

>  <Selectivity Rate (IC50 hLDHB/hLDHA)>
>20.3

$$$$

Turning now to a further molecule:
## Input Query (molecule): COc1ccc(C23CC(c4cc(Cl)ccc4O2)c2c(c4ccccc4oc2=O)O3)cc1OC (racemic) [(±)-50] ; field requested: Selectivity Rate (IC50 hLDHB/hLDHA)
## Output >22.7

###

# ASSAYED SYSTEM: recombinant human LDHB (Homo sapiens)
# Construct: purchased Abcam
# Sequence (P07195 whole entry): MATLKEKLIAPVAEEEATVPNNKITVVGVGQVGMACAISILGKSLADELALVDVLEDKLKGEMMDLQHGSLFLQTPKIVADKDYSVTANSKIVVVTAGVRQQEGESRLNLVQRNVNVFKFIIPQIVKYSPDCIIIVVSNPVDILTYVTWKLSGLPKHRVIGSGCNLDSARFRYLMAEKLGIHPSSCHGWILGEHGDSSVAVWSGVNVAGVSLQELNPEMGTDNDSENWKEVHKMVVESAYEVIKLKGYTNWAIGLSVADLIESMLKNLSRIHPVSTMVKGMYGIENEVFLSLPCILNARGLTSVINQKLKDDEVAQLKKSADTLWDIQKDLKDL
# PROTOCOL: hLDHB enzymatic activity assay (same fluorimetric protocol)
# Assay type: biochemical
# TEST CONDITIONS: mean ± SD of n = 3 replicates; read-out: hLDHB IC50
OBSERVED PROPERTY: IC50 (µM)
API: value field is a number in µM; no unit string.

Consider the reported IC50 for these molecules:
>  <MOLECULE>
COc1ccc(C23CC(C4=C(CC(c5ccc(Cl)cc5)OC4=O)O2)c2cc([N+](=O)[O-])ccc2O3)cc1OC (racemic) [(±)-66b]

>  <OBSERVED PROPERTY>
IC50

>  <MEASURED>
20.4

$$$$
>  <MOLECULE>
COc1ccc(C23CC(c4cc([N+](=O)[O-])ccc4O2)c2c(O)cc(O)cc2O3)cc1OC (racemic) [(±)-43]

>  <OBSERVED PROPERTY>
IC50

>  <MEASURED>
65.3

$$$$

Please look at the following molecule next.
## Input Request the reported IC50 associated with COc1ccc(C23CC(c4ccccc4O2)c2c(O)cc(O)cc2O3)cc1OC (racemic) [(±)-42]
## Output 293

###

# ASSAYED SYSTEM: recombinant human LDHA (Homo sapiens, UniProt P00338)
# Construct: purchased Abcam
# PROTOCOL: hLDHA enzymatic activity assay (kinetic spectrofluorimetric, β-NADH fluorescence decrease)
# Format: biochemical
# TEST CONDITIONS: ratio IC50 hLDHB / IC50 hLDHA
OBSERVED PROPERTY: Selectivity Rate (IC50 hLDHB/hLDHA)
Lab note: record just the number, no unit beside it.

These recorded examples may help you get a feel for the data.
>  <MOLECULE>
COc1ccc(C2CC3=C(C(=O)O2)C2CC(c4ccc(OC)c(OC)c4)(O3)Oc3ccc([N+](=O)[O-])cc32)cc1 (racemic) [(±)-67b]

>  <ASSAYED SYSTEM>
recombinant human LDHA (Homo sapiens, UniProt P00338)

>  <OBSERVED PROPERTY>
Selectivity Rate (IC50 hLDHB/hLDHA)

>  <MEASURED>
3.7

$$$$
>  <MOLECULE>
O=c1oc2ccccc2c2c1C1CC(c3ccc(O)c(O)c3)(Oc3ccc(Cl)cc31)O2 (racemic) [(±)-47]

>  <ASSAYED SYSTEM>
recombinant human LDHA (Homo sapiens, UniProt P00338)

>  <OBSERVED PROPERTY>
Selectivity Rate (IC50 hLDHB/hLDHA)

>  <MEASURED>
1.6

$$$$
>  <MOLECULE>
O=C1C2=C(C(=O)c3ccccc31)C1CC(c3ccc(O)c(O)c3)(O2)Oc2ccc(Cl)cc21 (racemic) [(±)-56]

>  <ASSAYED SYSTEM>
recombinant human LDHA (Homo sapiens, UniProt P00338)

>  <OBSERVED PROPERTY>
Selectivity Rate (IC50 hLDHB/hLDHA)

>  <MEASURED>
8.7

$$$$
>  <MOLECULE>
O=c1oc2ccccc2c2c1C1CC(c3ccc(O)cc3)(Oc3ccc([N+](=O)[O-])cc31)O2 (racemic) [(±)-52]

>  <ASSAYED SYSTEM>
recombinant human LDHA (Homo sapiens, UniProt P00338)

>  <OBSERVED PROPERTY>
Selectivity Rate (IC50 hLDHB/hLDHA)

>  <MEASURED>
1.8

$$$$

## Input Dear colleague, I am looking for the recorded Selectivity Rate (IC50 hLDHB/hLDHA) of the following molecule: COc1ccc(C23CC(c4cc([N+](=O)[O-])ccc4O2)c2c(c4ccccc4oc2=O)O3)cc1OC (racemic) [(±)-49]
## Output 8.3

###

compounds and their reported melting point

Example entries and their recorded answers appear below.
>  <COMPOUND>
COc1ccc(C2CC3=C(C(=O)O2)C2CC(c4ccc(OC)c(OC)c4)(O3)Oc3ccc(Cl)cc32)cc1 (racemic) [(±)-70a]

>  <MEASURED>
108 to 111 °C

$$$$
>  <COMPOUND>
COc1ccc(C23CC(C4=C(CC(c5ccc(Cl)cc5)OC4=O)O2)c2cc([N+](=O)[O-])ccc2O3)cc1OC (racemic) [(±)-66a]

>  <MEASURED>
194 to 196 °C

$$$$
>  <COMPOUND>
COc1ccc(C23CC(c4cc([N+](=O)[O-])ccc4O2)c2c(c4ccccc4oc2=O)O3)cc1OC (racemic) [(±)-49]

>  <MEASURED>
142 to 144 °C

$$$$

We now examine a further compound.
## Input Requested field: melting point. Item: O=c1oc2ccccc2c2c1C1CC(c3ccc(O)cc3)(Oc3ccc([N+](=O)[O-])cc31)O2 (racemic) [(±)-52]
## Output 275 to 278 °C

###

Recorded Selectivity Rate (IC50 hLDHB/hLDHA) by entry
# ASSAYED SYSTEM: recombinant human LDHA (Homo sapiens, UniProt P00338)
# Construct: purchased Abcam
# PROTOCOL: hLDHA enzymatic activity assay (kinetic spectrofluorimetric, β-NADH fluorescence decrease)
# Assay type: biochemical
# TEST CONDITIONS: ratio IC50 hLDHB / IC50 hLDHA
Please reply with the number alone, leaving off any unit.

Below, 5 compounds whose answers are already recorded.
>  <COMPOUND>
O=C1C2=C(C(=O)c3ccccc31)C1CC(c3ccc(O)c(O)c3)(O2)Oc2ccc([N+](=O)[O-])cc21 (racemic) [(±)-55]

>  <Selectivity Rate (IC50 hLDHB/hLDHA)>
1.1

$$$$
>  <COMPOUND>
COc1ccc(C23CC(c4ccccc4O2)c2c(O)cc(O)cc2O3)cc1OC (racemic) [(±)-42]

>  <Selectivity Rate (IC50 hLDHB/hLDHA)>
1.9

$$$$
>  <COMPOUND>
COc1ccc(C23CC(C4=C(CC(c5ccccc5)OC4=O)O2)c2cc([N+](=O)[O-])ccc2O3)cc1OC (racemic) [(±)-65a]

>  <Selectivity Rate (IC50 hLDHB/hLDHA)>
21.5

$$$$
>  <COMPOUND>
COc1ccc(C2CC3=C(C(=O)O2)C2CC(c4ccc(OC)c(OC)c4)(O3)Oc3ccc(Cl)cc32)cc1 (racemic) [(±)-70b]

>  <Selectivity Rate (IC50 hLDHB/hLDHA)>
14.5

$$$$
>  <COMPOUND>
COc1ccc(C23CC(c4cc([N+](=O)[O-])ccc4O2)c2c(O)cc(O)cc2O3)cc1OC (racemic) [(±)-43]

>  <Selectivity Rate (IC50 hLDHB/hLDHA)>
8.0

$$$$

// switching to the query compound
## Input Look up Selectivity Rate (IC50 hLDHB/hLDHA): O=c1oc2ccccc2c2c1C1CC(c3ccc(O)cc3)(Oc3ccccc31)O2 (racemic) [(±)-51]
## Output 0.9
